# credit: ChEMBL document CHEMBL1201862

# Tested on: HOP-62
# Run Description: NCI tumour cell line growth inhibition, 48 h
Activity calls are given as the source filed them. Cut-off read from the data, not from the text of the source: active = GI50 up to about 1.1 µM and inactive = higher.
Measure Name: GI50

>  <Compound>
CCN1CCC(C)OP1(=O)Cc1ccccc1 (stereo not given)

>  <Tested Target>
HOP-62

>  <Reported Result>
> 100 µM (inactive)

$$$$
>  <Compound>
CCOC(=O)C1(C/C=C/CCl)CCCC1=O (stereo not given)

>  <Tested Target>
HOP-62

>  <Reported Result>
20.5 µM (inactive)

$$$$
>  <Compound>
Cc1ccc(N2C[N+](c3ccccc3)=NC(c3ccccc3)=N2)cc1

>  <Tested Target>
HOP-62

>  <Reported Result>
> 100 µM (inactive)

$$$$
>  <Compound>
NC(Cc1ccc(S(=O)(=O)O)cc1)C(=O)NC(CCCCNC(=O)NCCCCC(NC(=O)C(N)Cc1ccc(S(=O)(=O)O)cc1)C(=O)NC(Cc1ccc(S(=O)(=O)O)cc1)C(=O)O)C(=O)NC(Cc1ccc(S(=O)(=O)O)cc1)C(=O)O (stereo not given)

>  <Tested Target>
HOP-62

>  <Reported Result>
> 100 µM (inactive)

$$$$
>  <Compound>
COC(=O)c1ccc(/C=C2\N=C(C)OC2=O)cc1

>  <Tested Target>
HOP-62

>  <Reported Result>
> 100 µM (inactive)

$$$$
